Listed below: activity change, negative = inhibition values for each entry.
Target: Acetylcholinesterase (Homo sapiens) (UniProt P22303)
Sequence (P22303 whole entry, looked up): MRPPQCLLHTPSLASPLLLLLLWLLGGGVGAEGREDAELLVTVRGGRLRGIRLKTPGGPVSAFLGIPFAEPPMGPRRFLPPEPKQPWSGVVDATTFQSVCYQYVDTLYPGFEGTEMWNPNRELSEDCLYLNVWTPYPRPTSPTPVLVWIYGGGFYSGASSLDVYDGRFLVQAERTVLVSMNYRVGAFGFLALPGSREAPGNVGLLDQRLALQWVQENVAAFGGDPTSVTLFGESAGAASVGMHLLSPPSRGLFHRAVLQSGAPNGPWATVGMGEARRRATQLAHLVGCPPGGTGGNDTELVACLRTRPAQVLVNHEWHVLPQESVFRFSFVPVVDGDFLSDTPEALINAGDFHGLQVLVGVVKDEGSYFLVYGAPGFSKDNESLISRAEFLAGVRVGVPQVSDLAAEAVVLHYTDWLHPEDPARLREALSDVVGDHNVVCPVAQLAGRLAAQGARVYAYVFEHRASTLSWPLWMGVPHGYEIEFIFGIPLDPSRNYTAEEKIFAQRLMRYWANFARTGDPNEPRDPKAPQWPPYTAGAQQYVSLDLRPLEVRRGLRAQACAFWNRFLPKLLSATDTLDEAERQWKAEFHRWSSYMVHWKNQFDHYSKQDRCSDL
Test: Acetylcholinesterase (AChE) small molecule antagonists: enzyme-based qHTS assay with human liver microsomes (AID 1347399); note: % is set by controls: 0 for no effect and ±100 for the full control effect; nearly all actives have a fitted effect of over 60% in size
Conditions: series mostly up to 115 µM
Activity calls are given as the source filed them. Calls come from the whole dose curve.

smiles.text: O=C(O)c1ccccc1Nc1cc(Cl)ccc1C(=O)O
system: Acetylcholinesterase (Homo sapiens) (UniProt P22303)
activity change, negative = inhibition: 0.168% [at 23.6 µM] (inactive)

smiles.text: CCN1CCN(c2cc(-c3ccc(F)cc3)c3c(n2)CCCCCC3)CC1
system: Acetylcholinesterase (Homo sapiens) (UniProt P22303)
activity change, negative = inhibition: -1.12% [at 23.6 µM] (inactive)

smiles.text: NC(N)=NCCC[C@H](N)C(=O)O
system: Acetylcholinesterase (Homo sapiens) (UniProt P22303)
activity change, negative = inhibition: -0.0087% [at 10.5 µM] (inactive)

smiles.text: COC=O
system: Acetylcholinesterase (Homo sapiens) (UniProt P22303)
activity change, negative = inhibition: 0.679% [at 10.5 µM] (inactive)

smiles.text: NC[C@H]1O[C@H](O[C@H]2[C@H](O)[C@@H](O[C@H]3O[C@H](CO)[C@@H](O)[C@H](N)[C@H]3O)[C@H](N)C[C@@H]2N)[C@H](N)[C@@H](O)[C@@H]1O
system: Acetylcholinesterase (Homo sapiens) (UniProt P22303)
activity change, negative = inhibition: 3.75% [at 23.6 µM] (inactive)

smiles.text: Oc1cn2c(n1)Nc1ccc(Cl)c(Cl)c1C2
system: Acetylcholinesterase (Homo sapiens) (UniProt P22303)
activity change, negative = inhibition: 0.168% [at 23.6 µM] (inactive)

smiles.text: c1cc2ccc3ccc4ccc5cccc6c(c1)c2c3c4c56
system: Acetylcholinesterase (Homo sapiens) (UniProt P22303)
activity change, negative = inhibition: 0.324% [at 4.07 µM] (inactive)

smiles.text: O=C(O)CN(CCN(CC(=O)O)CC(=O)O)CCN(CC(=O)O)CC(=O)O
system: Acetylcholinesterase (Homo sapiens) (UniProt P22303)
activity change, negative = inhibition: 0% [at 23.6 µM] (inactive)

smiles.text: CN1CCN(c2c(F)cc3c(=O)c(C(=O)O)cn4c3c2OCN4C)CC1
system: Acetylcholinesterase (Homo sapiens) (UniProt P22303)
activity change, negative = inhibition: -0.167% [at 23.6 µM] (inactive)

smiles.text: C=C/C=C/C=C/CCCCC
system: Acetylcholinesterase (Homo sapiens) (UniProt P22303)
activity change, negative = inhibition: -1.78% [at 23.6 µM] (inactive)

smiles.text: Cc1ccc2nc3sc(=O)sc3nc2c1
system: Acetylcholinesterase (Homo sapiens) (UniProt P22303)
activity change, negative = inhibition: -0.324% [at 23.6 µM] (inactive)
